Hello, the source for this data is PubChem BioAssay (NCI), in case you need it.

Here the recorded growth is given for each entry.
- System: SR leukemia
- assay.explanation: NCI-60 one-dose screen, 48 h (100 = growth as untreated, 0 = no growth, -100 = all killed)
- condition.context: 10 µM unless noted
This is part of a sample that, as a whole, favours compounds with a hit. Of some 83,000 tested, about 20% had one in any assay.
readout.kind: growth (%)

1. O=C(Nc1nc(-c2ccccc2Cl)cs1)c1cc(-c2ccc(Br)cc2)nc2ccccc12    53
2. C=C(C)[C@@H]1CC[C@]2(C(=O)NCCCO)CC[C@]3(C)[C@H](CC[C@@H]4[C@@]5(C)CCCNC(C)(C)[C@@H]5CC[C@]43C)[C@@H]12    -19.5
3. O=C(O)COc1ccc2c(=O)c3sc4c(=O)c5ccccc5c(=O)c4c3c(=O)c2c1    26.6
4. O=C1Nc2ccccc2C12C=C(c1ccccc1)Nc1c2c(-c2ccccc2)nn1-c1ccccc1 (stereo not drawn)    38
5. CCc1c(C(=O)N[C@@H](C(=O)OCc2ccccc2)C(C)O)[nH]c2ccc(Cl)cc12 (stereo partly drawn)    35.1
6. C[C@]12CC[C@@H]3c4ccc(O)cc4CC[C@H]3[C@@H]1C[C@H](O)C2    25.4
7. O=C(O)c1ccc(-n2cc(/C=N/Nc3ccc(Cl)cc3Cl)c(-c3ccccc3)n2)cc1    86.2
8. COc1ccc(-c2cc(-c3nnc(SCC(=O)Nc4ccc(/C(C)=N\O)cc4)n3-c3ccccc3)c3cc(OC)ccc3n2)cc1    49.1
9. O=C(/C(=C/c1ccc([N+](=O)[O-])cc1)SCc1ccc(Cl)cc1)c1ccc(F)cc1    0.569
10. COc1ccc(N(C)c2nc(Cl)nc3ccn(C)c23)cc1    11.3
11. NC(=O)CN1C(=O)c2ccccc2C1=O    87.8
12. O=C1CCC23OC(c4ccccc4N12)C(O)C(O)C3O (stereo not drawn)    112
13. O=C(Nc1cc(=O)[nH]c(=O)[nH]1)C(Cl)Cl    98.6
14. C=C1C(=O)O[C@H]2[C@H]1CCC(/C=N/c1ncc(Br)cc1N)=C\CC[C@@]1(C)O[C@@H]21    -3.64
15. COc1cc(-c2csc(NC(=O)Nc3ccc(Cl)cc3)n2)cc(OC)c1OC    33.7
16. CN1CCN(/C=C2\CC(C(=O)NCc3ccc(Cl)cc3Cl)NC2=O)CC1 (stereo not drawn)    90.3
17. Cc1ccc(CS/C(=C\c2ccc([N+](=O)[O-])cc2)C(=O)c2ccc(F)cc2)cc1    0.11
18. CC[C@]12C=CCN3CC[C@@]4(c5ccc(OC)cc5N(C)[C@H]4[C@@](O)(C(=O)OC)[C@@H]1OC(=O)CCC(=O)O[C@H]1CC[C@H]4[C@@H]5CC[C@H]6CC(=O)CC[C@]6(C)[C@H]5CC[C@]14C)[C@@H]32    -10.4

====

- Test system: IGROV1 ovarian
- assay.explanation: NCI-60 one-dose screen, 48 h (100 = growth as untreated, 0 = no growth, -100 = all killed)
- condition.context: 10 µM unless noted
About 83,000 compounds went through this panel and 20% of them were active in at least one assay; those are over-represented in the sample as a whole.
Output Yes for growth not less than 50%; output No otherwise.

1) CCc1n(Cc2ccc3ccccc3c2)c2ccccc2[n+]1Cc1ccc2ccccc2c1    No
2) CCN(CC)CC#CCOC(=O)[C@]1(C)CCC[C@]2(C)[C@H]3C[C@H]4C(C(C)C)=C[C@]3(CC[C@H]21)[C@@H]1C(=O)CCC(=O)[C@@H]14    Yes
3) C=C1C(=O)O[C@H]2[C@H]1CC/C(COC(=O)CCCCCCC(=O)OC/C1=C/CC[C@@]3(C)O[C@H]3[C@H]3OC(=O)C(=C)[C@@H]3CC1)=C\CC[C@@]1(C)O[C@@H]21    No
4) O=C1Nc2ccc(Cl)cc2/C1=N/c1nc(-c2ccc(F)cc2)cs1    No
5) Cc1cccc(C)c1NCc1nnc(-c2ccco2)o1    Yes
6) O=C(Nc1ccc(N=Cc2ccccc2O)cc1)NC1C=c2ccccc2=CC1 (centres undefined)    Yes
7) Cc1nc2sc(C(=O)Nc3cccc4ccccc34)c(N)c2cc1C(C)O (centres undefined)    No
8) O=C1Nc2ccc(Cl)cc2/C1=N/c1nc(-c2ccc(Cl)cc2)cs1    No
9) COc1ccc(C(C)c2cc(OC)c(OC)c(OC)c2)cc1 (centres undefined)    No
10) CCCCc1n(Cc2ccc3ccccc3n2)cc[n+]1Cc1ccc2ccccc2c1    No
11) c1ccc(-c2cn3ccnc3c(-c3ccc4c(c3)ncn4C3CCCCC3)n2)cc1    Yes
12) CC(C)(C)c1ccc2oc(=O)n(SC(Cl)(Cl)Cl)c2c1    Yes
13) C=C(C)[C@@H]1CC[C@]2(C(=O)n3ccnc3)CC[C@]3(C)[C@H](CC[C@@H]4[C@@]5(C)CCCNC(C)(C)[C@@H]5CC[C@]43C)[C@@H]12    No
14) c1ccc(-c2n(Cc3ccc4ccccc4n3)cc[n+]2Cc2ccc3ccccc3c2)cc1    No
15) O=S(=O)(O)c1ccc(N=NSc2ccc3ccccc3c2)cc1    Yes
16) CCc1c(C(=O)N[C@@H](C(=O)OCc2ccccc2)C(C)O)[nH]c2ccc(Cl)cc12 (some centres undefined)    No
17) Nc1ccccc1NS(=O)(=O)c1ccc(Cl)cc1    Yes
18) Nn1c(SCC(=O)Nc2ccc(Cl)cc2)nnc1-c1cc(F)c(Cl)cc1Cl    Yes
19) OCCNc1nc(NCCO)nc(Nc2ccc(C3=NN(c4ccc(Cl)cc4)C(c4ccc(Cl)cc4)C3)cc2)n1 (centres undefined)    Yes

====

- Tested on: COLO 205 colon
- assay.explanation: NCI-60 one-dose screen, 48 h (100 = growth as untreated, 0 = no growth, -100 = all killed)
- condition.context: 10 µM unless noted
About 83,000 compounds went through this panel and 20% of them were active in at least one assay; those are over-represented in the sample as a whole.
readout.kind: growth (%)

1) COC(=O)/C=C1\SC(=Nc2cccc(Cl)c2)N(CCc2c[nH]c3ccccc23)C1=O    12.1
2) O=C1[C@@H](OS(=O)(=O)CC(F)(F)F)[C@H](c2ccc(F)cn2)N1c1cc2c3ccccc3ccc2c2ccccc12    101
3) c1ccc(-c2n(Cc3ccc4ccccc4n3)cc[n+]2Cc2ccc3ccccc3n2)cc1    -49.3
4) CN(C)C1=NCCN1    111
5) C[C@H](Oc1cc(-c2cnn(C3CCNCC3)c2)cnc1N)c1c(Cl)ccc(F)c1Cl    46.3
6) COc1ccc(-c2cc(-c3nnc(SCC(=O)Nc4ccc(/C(C)=N\O)cc4)o3)c3ccccc3n2)cc1    118
7) CCC[S@@](=O)c1ccc2nc(NC(=O)OC)[nH]c2c1    96.4
8) N#C/C(=C/c1ccc(O)c([N+](=O)[O-])c1)c1nc(-c2ccc([N+](=O)[O-])cc2)cs1    51.2
9) C/C(=C\c1cnc(C)s1)[C@@H]1C[C@@H]2O[C@@H]2CCC[C@H](C)[C@H](O)[C@@H](C)C(=O)C(C)(C)[C@@H](O)CC(=O)O1    -8.64

====

- Tested on: KM12 colon
- assay.explanation: NCI-60 one-dose screen, 48 h (100 = growth as untreated, 0 = no growth, -100 = all killed)
- condition.context: 10 µM unless noted
Compounds without any hit were thinned out: in the full panel of roughly 83,000, 20% have a hit.
Flag rule - growth less than 90% flags Y; the remaining entries get N.

1. O=C(NC[C@H](O)CN1CCc2ccccc2C1)c1cc(NC2COC2)ncn1    N
2. Sc1cccc2cccnc12    Y
3. CSc1nc(-c2ccco2)c2c(N)[nH]nc2n1    Y
4. C#C[C@@]1(O)[C@@H](CO)O[C@@H](n2ccc3c(N)ncnc32)[C@@H]1O    Y
5. N#Cc1ccc(N2Cc3cc(Cl)ccc3OC3=C2C(=O)N(Cc2ccc(F)cc2)C3=O)cc1    Y
6. COc1cc(NC(=O)Nc2cnc(Nc3ccc(N4CCOCC4)cc3)nc2Oc2ccc(C(F)(F)F)cc2)cc(OC)c1    N
7. NS(=O)(=O)c1ccc(-n2ncc(NC(=O)Nc3ccc(S(=O)(=O)Nc4nccs4)cc3)c2-c2ccccc2)cc1    N
8. CSc1nc(-c2ccc(F)cc2)c(C#N)c(N2CCOCC2)n1    N
9. COCCOC(=O)COc1ccc(OC)cc1    N
10. COc1cc(C(=O)Nc2cc(O)c(C/C=C(\C)CCC=C(C)C)c(O)c2)cc2c1O[C@]1(C)CC[C@@H](O)C(C)(C)[C@H]1C2    Y
11. COc1ccc(-c2[nH]c3ccccc3c2C=C(C#N)C#N)cc1    Y
12. CCCCc1n(Cc2ccc3ccccc3c2)c2ccccc2[n+]1Cc1ccc2ccccc2c1    Y
13. COc1ccc2nc(-c3ccc(Cl)cc3)cc(-c3nnc(SC/C(=N/O)c4ccccc4)o3)c2c1    Y
14. CC1CCN(CCCCCOc2ccc3oc4cc(Cl)ccc4c(=O)c3c2)CC1    Y
15. CC(C)(C)c1ccc2oc(=O)n(SC(Cl)(Cl)Cl)c2c1    N
